assay: in vitro; conditions: human, Caco-2, pH 6, Efflux ratio in the absence of MK571
readout label: efflux ratio
Number only, please.

As a guide, the following entries are already answered.
O=C(O[C@@H]1Cc2c(O)cc(O)cc2O[C@H]1c1ccc(O)c(O)c1)c1cc(O)c(O)c(O)c1 [CG, (−)-catechin gallate] :: 4.68
Oc1cc(O)c2c(c1)O[C@@H](c1cc(O)c(O)c(O)c1)[C@H](O)C2 [GC, (+)-gallocatechin] :: 3.32
Oc1cc(O)c2c(c1)O[C@H](c1cc(O)c(O)c(O)c1)[C@H](O)C2 [EGC, (−)-epigallocatechin] :: 2.74

Measured efflux ratio, O=C(O[C@@H]1Cc2c(O)cc(O)cc2O[C@@H]1c1ccc(O)c(O)c1)c1cc(O)c(O)c(O)c1 [ECG, (−)-epicatechin gallate] : 2.82
